Overview of recorded viability, T/C for various compounds
System: 885724-159-R-J1-PDC complex spheroid viability
Assay: Anticancer human tumor 885724-159-R-J1-PDC patient-derived pancreatic adenocarcinoma cell line growth inhibition [GQUAD]
Settings: second compound 0.1 µM; first compound 0.0316 µM; active compounds read low
Source text: DNA G-quadruplex Stabilizer Agents in Combinations in Complex Spheroids A high-throughput screen of multi-cell type tumor spheroids was designed to identify active combinations of DNA G-quadruplex stabilizer agents and targeted small molecules. […] Compounds. […] If the clinical Cmax for an agent had not been determined, the highest concentration tested was 10 microM. […]
Give the value in % but do not write % after it.

compound="Cc1[nH]c2ccccc2c1CCNCc1ccc(/C=C/C(=O)NO)cc1 + Cc1[nH]c2ccc(F)cc2c1-c1nc2c3cccnc3c3ncccc3c2[nH]1" unit_descriptor=% quantitative_readout=95

## Input What viability, T/C value was documented for this compound, CC1COCCN1c1cc(C2(S(C)(=N)=O)CC2)nc(-c2ccnc3[nH]ccc23)n1 (stereo unspecified) + CN(C)c1ccc(Nc2c3ccc(NC(=O)CCN4CCCC4)cc3nc3cc(NC(=O)CCN4CCCC4)ccc23)cc1 ?
## Output 87.7

## Input Repeat for the following compound: C=CCn1c(=O)c2cnc(Nc3ccc(N4CCN(C)CC4)cc3)nc2n1-c1cccc(C(C)(C)O)n1 + Cc1cnc(CNC(=O)c2c(=O)c3ccc(N4CCCN(C)CC4)nc3n3c2sc2ccccc23)cn1
## Output 109

## Input Now give it for C=CC(=O)N1CCN(c2nc(=O)n(-c3c(C)ccnc3C(C)C)c3nc(-c4c(O)cccc4F)c(F)cc23)C(C)C1 (stereo unspecified) + Cc1cnc(CNC(=O)c2c(=O)c3ccc(N4CCCN(C)CC4)nc3n3c2sc2ccccc23)cn1 too.
## Output 101

## Input Item: CC1COCCN1c1cc(-c2ccnn2C)c2ccnc(-c3ccn[nH]3)c2n1 (stereo unspecified) + Cc1[nH]c2ccc(F)cc2c1-c1nc2c3cccnc3c3ncccc3c2[nH]1
## Output 99.7

## Input Now this one: O=c1[nH]cc(F)c(=O)[nH]1 + Cc1[nH]c2ccc(F)cc2c1-c1nc2c3cccnc3c3ncccc3c2[nH]1
## Output 103

----------
Reported viability, T/C values for the following molecules.
System: 885724-159-R-J1-PDC complex spheroid viability
Assay: Anticancer human tumor 885724-159-R-J1-PDC cell line growth inhibition [GQUAD];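 also: spheroids exposed to agents for seven days before readout; percent of vehicle control viability where 100% = DMSO wells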
Settings: second compound 0.1 µM; first compound 0.0316 µM; active compounds read low
Please respond with the number in % and leave the unit unwritten.

Reference set (3 entries):
molecule="C#Cc1c(F)ccc2cc(O)cc(-c3ncc4c(N5CC6CCC(C5)N6)nc(OCC56CCCN5CC(F)C6)nc4c3F)c12 (stereo not given) + Cc1cnc(CNC(=O)c2c(=O)c3ccc(N4CCCN(C)CC4)nc3n3c2sc2ccccc23)cn1" value_kind="viability, T/C" unit_descriptor=% quantitative_readout=106
molecule="CCc1c2c(nc3ccc(O)cc13)-c1cc3c(c(=O)n1C2)COC(=O)[C@]3(O)CC + CN(C)c1ccc(Nc2c3ccc(NC(=O)CCN4CCCC4)cc3nc3cc(NC(=O)CCN4CCCC4)ccc23)cc1" value_kind="viability, T/C" unit_descriptor=% quantitative_readout=59.7
molecule="O=c1[nH]cc(F)c(=O)[nH]1 + CN(C)c1ccc(Nc2c3ccc(NC(=O)CCN4CCCC4)cc3nc3cc(NC(=O)CCN4CCCC4)ccc23)cc1" value_kind="viability, T/C" unit_descriptor=% quantitative_readout=90.8

## Input Please give the measured viability, T/C for this molecule: COc1ccc([C@@H](O)c2cc(-c3ncnc4cc(N5CCOCC5)ccc34)c(F)cc2Cl)nn1 + Cc1[nH]c2ccc(F)cc2c1-c1nc2c3cccnc3c3ncccc3c2[nH]1
## Output 99

## Input Next entry: O=C(c1cc(Cc2n[nH]c(=O)c3ccccc23)ccc1F)N1CCN(C(=O)C2CC2)CC1 + Cc1[nH]c2ccc(F)cc2c1-c1nc2c3cccnc3c3ncccc3c2[nH]1
## Output 102

----------
System: 885724-159-R-J1-PDC complex spheroid viability
Test: Anticancer human tumor 885724-159-R-J1-PDC cell line growth inhibition [GQUAD]; active means viability on the fitted dose curve at most 10% of control; inactive means the rest;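 also: spheroids exposed to agents for seven days before readout; percent of vehicle control viability where 100% = DMSO wells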
Details: second compound 3.16 µM; first compound 0.316 µM
Please state which outcome applies, choosing from active, inactive

molecule="CC(C)n1c(=O)n(C)c2cnc3cc(F)c(-c4ccc(OCCCN5CCCCC5)nc4)cc3c21 + Cc1cnc(CNC(=O)c2c(=O)c3ccc(N4CCCN(C)CC4)nc3n3c2sc2ccccc23)cn1" assigned_label=inactive
molecule="COc1cccc2c1C(=O)c1c(O)c3c(c(O)c1C2=O)CC(O)(C(=O)CO)CC3OC1CC(N)C(O)C(C)O1 (stereo not given) + Cc1cnc(CNC(=O)c2c(=O)c3ccc(N4CCCN(C)CC4)nc3n3c2sc2ccccc23)cn1" assigned_label=inactive
molecule="C=CCn1c(=O)c2cnc(Nc3ccc(N4CCN(C)CC4)cc3)nc2n1-c1cccc(C(C)(C)O)n1 + Cc1cnc(CNC(=O)c2c(=O)c3ccc(N4CCCN(C)CC4)nc3n3c2sc2ccccc23)cn1" assigned_label=inactive
molecule="CC1COCCN1c1cc(C2(S(C)(=N)=O)CC2)nc(-c2ccnc3[nH]ccc23)n1 (stereo not given) + Cc1[nH]c2ccc(F)cc2c1-c1nc2c3cccnc3c3ncccc3c2[nH]1" assigned_label=inactive
molecule="CC1COCCN1c1cc(-c2ccnn2C)c2ccnc(-c3ccn[nH]3)c2n1 (stereo not given) + Cc1cnc(CNC(=O)c2c(=O)c3ccc(N4CCCN(C)CC4)nc3n3c2sc2ccccc23)cn1" assigned_label=inactive

## Input Which result was noted for this molecule in the test: CC(=O)O[C@H]1C(=O)[C@@]2(C)[C@H]([C@H](OC(=O)c3ccccc3)[C@]3(O)C[C@H](OC(=O)[C@H](O)[C@@H](NC(=O)c4ccccc4)c4ccccc4)C(C)=C1C3(C)C)[C@]1(OC(C)=O)CO[C@@H]1C[C@@H]2O + Cc1[nH]c2ccc(F)cc2c1-c1nc2c3cccnc3c3ncccc3c2[nH]1
## Output active

## Input Then this molecule: COc1ccc([C@@H](O)c2cc(-c3ncnc4cc(N5CCOCC5)ccc34)c(F)cc2Cl)nn1 + Cc1cnc(CNC(=O)c2c(=O)c3ccc(N4CCCN(C)CC4)nc3n3c2sc2ccccc23)cn1
## Output inactive

## Input Then what about the molecule COc1cccc2c1C(=O)c1c(O)c3c(c(O)c1C2=O)CC(O)(C(=O)CO)CC3OC1CC(N)C(O)C(C)O1 (stereo not given) + CN(C)c1ccc(Nc2c3ccc(NC(=O)CCN4CCCC4)cc3nc3cc(NC(=O)CCN4CCCC4)ccc23)cc1 ?
## Output inactive

## Input Would you mind doing CCc1c2c(nc3ccc(O)cc13)-c1cc3c(c(=O)n1C2)COC(=O)[C@]3(O)CC + Cc1[nH]c2ccc(F)cc2c1-c1nc2c3cccnc3c3ncccc3c2[nH]1 as well?
## Output active

## Input Then COc1ncnc(C2CC2)c1-c1ncc2cnn(Cc3ccc(-c4nc(C(F)(F)F)cn4C(C)C)cc3)c2n1 + Cc1cnc(CNC(=O)c2c(=O)c3ccc(N4CCCN(C)CC4)nc3n3c2sc2ccccc23)cn1 ?
## Output inactive

----------
System: 885724-159-R-J1-PDC complex spheroid viability
Experiment: Anticancer human tumor 885724-159-R-J1-PDC cell line growth inhibition [GQUAD];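 also: spheroids exposed to agents for seven days before readout; percent of vehicle control viability where 100% = DMSO wells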
Details: second compound 0.0316 µM; first compound 0.1 µM; active compounds read low
Excerpt: DNA G-quadruplex Stabilizer Agents in Combinations in Complex Spheroids A high-throughput screen of multi-cell type tumor spheroids was designed to identify active combinations of DNA G-quadruplex stabilizer agents and targeted small molecules. […] Compounds. […] If the clinical Cmax for an agent had not been determined, the highest concentration tested was 10 microM. […]
Value Kind: viability, T/C (%)
State the answer as a number, implicitly in %.

compound="C=CC(=O)N1CCN(c2nc(=O)n(-c3c(C)ccnc3C(C)C)c3nc(-c4c(O)cccc4F)c(F)cc23)C(C)C1 (stereo unspecified) + Cc1[nH]c2ccc(F)cc2c1-c1nc2c3cccnc3c3ncccc3c2[nH]1" target_entity="885724-159-R-J1-PDC complex spheroid viability" quantitative_readout=106
compound="CC1COCCN1c1cc(-c2ccnn2C)c2ccnc(-c3ccn[nH]3)c2n1 (stereo unspecified) + Cc1cnc(CNC(=O)c2c(=O)c3ccc(N4CCCN(C)CC4)nc3n3c2sc2ccccc23)cn1" target_entity="885724-159-R-J1-PDC complex spheroid viability" quantitative_readout=81.4
compound="O=C(NO)c1cnc(N2CCN(S(=O)(=O)c3ccc4ccccc4c3)CC2)nc1 + Cc1cnc(CNC(=O)c2c(=O)c3ccc(N4CCCN(C)CC4)nc3n3c2sc2ccccc23)cn1" target_entity="885724-159-R-J1-PDC complex spheroid viability" quantitative_readout=83.3

## Input Bench note: what viability, T/C did Nc1ccn(C2OC(CO)C(O)C2(F)F)c(=O)n1 (stereo unspecified) + Cc1[nH]c2ccc(F)cc2c1-c1nc2c3cccnc3c3ncccc3c2[nH]1 show?
## Output 100

## Input Same read-out for O=c1[nH]cc(F)c(=O)[nH]1 + CN(C)c1ccc(Nc2c3ccc(NC(=O)CCN4CCCC4)cc3nc3cc(NC(=O)CCN4CCCC4)ccc23)cc1 ?
## Output 103

## Input And then C=CCn1c(=O)c2cnc(Nc3ccc(N4CCN(C)CC4)cc3)nc2n1-c1cccc(C(C)(C)O)n1 + Cc1cnc(CNC(=O)c2c(=O)c3ccc(N4CCCN(C)CC4)nc3n3c2sc2ccccc23)cn1 , what is it?
## Output 106

Where do the numbers come from? From PubChem BioAssay AID2060502.
